target: Platelet-derived growth factor receptor alpha (Homo sapiens)
Sequence (P16234 whole entry): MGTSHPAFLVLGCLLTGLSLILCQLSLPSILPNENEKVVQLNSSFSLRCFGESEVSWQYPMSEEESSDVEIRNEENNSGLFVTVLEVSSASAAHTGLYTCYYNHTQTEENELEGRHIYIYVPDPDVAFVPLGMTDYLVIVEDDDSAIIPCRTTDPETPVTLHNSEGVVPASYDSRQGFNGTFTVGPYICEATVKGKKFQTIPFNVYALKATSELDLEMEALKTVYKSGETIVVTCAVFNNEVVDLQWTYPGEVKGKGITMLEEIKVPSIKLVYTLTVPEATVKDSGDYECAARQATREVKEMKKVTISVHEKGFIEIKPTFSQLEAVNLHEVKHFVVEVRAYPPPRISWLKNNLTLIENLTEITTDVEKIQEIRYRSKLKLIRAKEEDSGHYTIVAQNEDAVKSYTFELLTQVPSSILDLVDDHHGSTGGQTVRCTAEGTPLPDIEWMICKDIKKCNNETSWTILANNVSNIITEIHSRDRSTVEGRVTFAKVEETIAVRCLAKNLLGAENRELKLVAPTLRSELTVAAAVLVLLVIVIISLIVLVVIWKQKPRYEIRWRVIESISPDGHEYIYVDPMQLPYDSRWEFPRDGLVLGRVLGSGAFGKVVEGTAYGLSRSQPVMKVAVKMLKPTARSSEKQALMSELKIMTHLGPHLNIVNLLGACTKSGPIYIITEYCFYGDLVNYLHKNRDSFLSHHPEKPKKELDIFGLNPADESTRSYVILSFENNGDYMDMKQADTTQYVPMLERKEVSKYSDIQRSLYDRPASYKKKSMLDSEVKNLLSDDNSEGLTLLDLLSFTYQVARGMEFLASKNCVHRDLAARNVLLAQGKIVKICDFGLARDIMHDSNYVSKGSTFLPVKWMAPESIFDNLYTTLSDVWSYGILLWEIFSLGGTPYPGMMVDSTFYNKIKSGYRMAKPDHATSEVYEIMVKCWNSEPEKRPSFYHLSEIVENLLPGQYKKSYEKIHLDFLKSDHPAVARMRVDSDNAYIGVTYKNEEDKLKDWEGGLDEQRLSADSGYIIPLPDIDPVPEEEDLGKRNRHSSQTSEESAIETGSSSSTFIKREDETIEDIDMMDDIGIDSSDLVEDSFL
READOUT_LABEL: IC50 (nM)
All answers are understood in nM, so give the number only.

What IC50 value was documented for this compound, `COc1cc2ncnc(N3CCN(/C(S)=N\Cc4ccccc4)CC3)c2cc1OC` ?
240

---

assay: Plasma concentration was determined after 8 hr at a dose 30 mg/kg administered orally to rat-16; format: ADME, organism-based; set-up: dose 30 mg/kg, route oral; details: po
READOUT_LABEL: concentration at 8 h (ng/mL)
All answers are understood in ng/mL, so give the number only.

What concentration at 8 h value was documented for this molecule, `COc1cc2ncnc(N3CCN(C(=S)NCc4ccco4)CC3)c2cc1OC` ?
1400
